Values were extracted from ChEMBL document CHEMBL4808208.

assay: Volume of distribution at steady state in CD-1 mouse at 3 mg/kg, iv measured for 24 hrs by LC-MS/MS analysis; type: ADME, organism-based; details: in vivo, read-out: Vdss

| Query Smiles | Output Unit | Vd |
| --- | --- | --- |
| COc1cc2c(cc1OCCCCCCC(=O)O)C[C@@H](C(C)C)n1cc(C(=O)O)c(=O)cc1-2 | L/kg | 3.26 |

###

experiment: Cmax in CD-1 mouse liver at 8 mg/kg, po measured for 24 hrs by LC-MS/MS analysis; type: ADME, organism-based; parameters: route oral, dose 8 mg/kg, time 24 hrs
Reported Property: Cmax (ng/mL)

| Query Smiles | Reported Property | Measurement |
| --- | --- | --- |
| COc1cc2c(cc1OCCCCCCC(=O)O)C[C@@H](C(C)C)n1cc(C(=O)O)c(=O)cc1-2 | Cmax | 333 |

###

assay: Metabolic stability in mouse liver microsomes assessed as clearance preincubated with compound for 10 mins followed by NADPH regenerating system addition and measured per mg protein for 60 mins by LC/MS-MS analysis; format: ADME, Microsome; conditions: time 70 min, read-out: CLH

| Query Smiles | microsomal CLint / µL/min/mg |
| --- | --- |
| COc1cc2c(cc1OCCCCCCC(=O)O)C[C@@H](C(C)C)n1cc(C(=O)O)c(=O)cc1-2 | 0.8 |

###

assay: AUC (last) in CD-1 mouse liver at 8 mg/kg, po measured for 24 hrs by LC-MS/MS analysis; type: ADME, organism-based; parameters: route oral, time 24 hrs, dose 8 mg/kg
Reported Property: AUC(0-t) at 24 h (ng·h/mL)

| Query Smiles | Reported Property | Output Unit | Measurement |
| --- | --- | --- | --- |
| COc1cc2c(cc1OCCCCCCC(=O)O)C[C@@H](C(C)C)n1cc(C(=O)O)c(=O)cc1-2 | AUC(0-t) at 24 h | ng·h/mL | 1310 |

###

assay: Cmax in CD-1 mouse plasma at 8 mg/kg, po measured for 24 hrs by LC-MS/MS analysis; type: ADME, organism-based; parameters: route oral, dose 8 mg/kg, time 24 hrs
Reported Property: Cmax (ng/mL)

| Query Smiles | Reported Property | Measurement |
| --- | --- | --- |
| COc1cc2c(cc1OCCCCCCC(=O)O)C[C@@H](C(C)C)n1cc(C(=O)O)c(=O)cc1-2 | Cmax | 16.1 |

###

assay: Half life in CD-1 mouse plasma at 3 mg/kg, iv measured for 24 hrs by LC-MS/MS analysis; format: ADME, organism-based

| Query Smiles | half-life, h |
| --- | --- |
| COc1cc2c(cc1OCCCCCCC(=O)O)C[C@@H](C(C)C)n1cc(C(=O)O)c(=O)cc1-2 | 1.48 |

###

Below, each entry is listed alongside its reported Papp A→B at 2 h, 1 µM.
experiment: Apparent permeability across apical to basolateral side in MDCK-MDR1 cells at 1 uM measured after 120 mins by LC-MS/MS analysis; type: ADME, cell-based, Canis lupus familiaris; settings: dog

| Query Smiles | Papp A→B at 2 h, 1 µM |
| --- | --- |
| COc1cc2c(cc1OCCCCCCC(=O)O)C[C@@H](C(C)C)n1cc(C(=O)O)c(=O)cc1-2 | 0.38 ×10⁻⁶ cm/s |
| COCCCOc1cc2c(cc1OC)-c1cc(=O)c(C(=O)O)cn1[C@H](C(C)C)C2 | 9.17 ×10⁻⁶ cm/s |

###

test: Oral bioavailability in CD-1 mouse plasma at 8 mg/kg measured for 24 hrs by LC-MS/MS analysis; format: ADME, organism-based
Reported Property: bioavailability

| Query Smiles | Measurement |
| --- | --- |
| COc1cc2c(cc1OCCCCCCC(=O)O)C[C@@H](C(C)C)n1cc(C(=O)O)c(=O)cc1-2 | 5.1% |

###

assay: Efflux ratio of apparent permeability in MDCK-MDR1 cells at 1 uM after 120 mins by LC-MS/MS analysis; format: ADME, cell-based, Canis lupus familiaris; settings: dog
Reported Property: efflux ratio at 2 h, 1 µM

| Query Smiles | Measurement |
| --- | --- |
| COc1cc2c(cc1OCCCCCCC(=O)O)C[C@@H](C(C)C)n1cc(C(=O)O)c(=O)cc1-2 | 1.47 |
| COCCCOc1cc2c(cc1OC)-c1cc(=O)c(C(=O)O)cn1[C@H](C(C)C)C2 | 3.9 |

###

test: Half life in CD-1 mouse liver at 8 mg/kg, po measured for 24 hrs by LC-MS/MS analysis; format: ADME, organism-based

| Query Smiles | Output Unit | half-life |
| --- | --- | --- |
| COc1cc2c(cc1OCCCCCCC(=O)O)C[C@@H](C(C)C)n1cc(C(=O)O)c(=O)cc1-2 | h | 3.54 |

###

tested on: Hepatitis B virus; test: Antiviral activity against Hepatitis B virus infected in human HepG2.2.15 cells assessed as reduction in HBsAg level measured after 4 days by AlphaLisa assay; assay type: functional, organism-based; details: HepG2.2.15, 96 h
Below, each entry is listed alongside its reported EC50.

| Query Smiles | Output Unit | EC50 |
| --- | --- | --- |
| COc1cc2c(cc1OCCCCCCCCC(=O)O)C[C@@H](C(C)C)n1cc(C(=O)O)c(=O)cc1-2 | nM | 4.6 |
| COc1cc2c(cc1OCCCC(=O)O)C[C@@H](C(C)C)n1cc(C(=O)O)c(=O)cc1-2 | nM | 1010 |
| COc1cc2c(cc1OCCCCC(=O)O)C[C@@H](C(C)C)n1cc(C(=O)O)c(=O)cc1-2 | nM | 380 |
| COc1cc2c(cc1OCCCCCC(=O)O)C[C@@H](C(C)C)n1cc(C(=O)O)c(=O)cc1-2 | nM | 87 |

###

assay: Apparent permeability of the compound across apical to basolateral side in human Caco-2 cells at 10 uM incubated for 1 hr; type: ADME, cell-based
Reported Property: Papp A→B at 1 h, 10 µM (×10⁻⁶ cm/s)

| Query Smiles | Output Unit | Measurement |
| --- | --- | --- |
| COc1cc2c(cc1OCCCCCCC(=O)O)C[C@@H](C(C)C)n1cc(C(=O)O)c(=O)cc1-2 | ×10⁻⁶ cm/s | 0.39 |

###

molecular target: Cytochrome P450 2E1 (Homo sapiens)
Sequence (P05181 whole entry): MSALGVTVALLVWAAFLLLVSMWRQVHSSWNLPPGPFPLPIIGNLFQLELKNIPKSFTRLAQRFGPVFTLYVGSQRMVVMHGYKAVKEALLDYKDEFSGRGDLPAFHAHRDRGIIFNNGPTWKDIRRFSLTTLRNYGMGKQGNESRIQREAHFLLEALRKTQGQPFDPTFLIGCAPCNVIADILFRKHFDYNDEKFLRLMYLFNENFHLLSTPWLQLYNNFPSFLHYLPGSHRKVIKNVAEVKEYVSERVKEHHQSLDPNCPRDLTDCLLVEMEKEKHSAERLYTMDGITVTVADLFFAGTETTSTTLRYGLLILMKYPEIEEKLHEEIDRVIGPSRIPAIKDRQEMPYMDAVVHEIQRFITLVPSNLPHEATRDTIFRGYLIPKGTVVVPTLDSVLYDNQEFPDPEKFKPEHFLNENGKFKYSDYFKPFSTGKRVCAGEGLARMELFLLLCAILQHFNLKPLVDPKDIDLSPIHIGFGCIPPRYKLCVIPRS
Reported Property: IC50

| Query Smiles | Measurement |
| --- | --- |
| COc1cc2c(cc1OCCCCCCC(=O)O)C[C@@H](C(C)C)n1cc(C(=O)O)c(=O)cc1-2 | > 10 µM |

###

Below, each entry is listed alongside its reported Papp B→A at 2 h, 1 µM.
test: Apparent permeability across basolateral to apical side in MDCK-MDR1 cells at 1 uM measured after 120 mins by LC-MS/MS analysis; format: ADME, cell-based, Canis lupus familiaris; details: dog

| Query Smiles | Papp B→A at 2 h, 1 µM, ×10⁻⁶ cm/s |
| --- | --- |
| COc1cc2c(cc1OCCCCCCC(=O)O)C[C@@H](C(C)C)n1cc(C(=O)O)c(=O)cc1-2 | 0.55 |
| COCCCOc1cc2c(cc1OC)-c1cc(=O)c(C(=O)O)cn1[C@H](C(C)C)C2 | 35.8 |

###

biological target: Cytochrome P450 2C19 (Homo sapiens, UniProt P33261)
Sequence (P33261 whole entry): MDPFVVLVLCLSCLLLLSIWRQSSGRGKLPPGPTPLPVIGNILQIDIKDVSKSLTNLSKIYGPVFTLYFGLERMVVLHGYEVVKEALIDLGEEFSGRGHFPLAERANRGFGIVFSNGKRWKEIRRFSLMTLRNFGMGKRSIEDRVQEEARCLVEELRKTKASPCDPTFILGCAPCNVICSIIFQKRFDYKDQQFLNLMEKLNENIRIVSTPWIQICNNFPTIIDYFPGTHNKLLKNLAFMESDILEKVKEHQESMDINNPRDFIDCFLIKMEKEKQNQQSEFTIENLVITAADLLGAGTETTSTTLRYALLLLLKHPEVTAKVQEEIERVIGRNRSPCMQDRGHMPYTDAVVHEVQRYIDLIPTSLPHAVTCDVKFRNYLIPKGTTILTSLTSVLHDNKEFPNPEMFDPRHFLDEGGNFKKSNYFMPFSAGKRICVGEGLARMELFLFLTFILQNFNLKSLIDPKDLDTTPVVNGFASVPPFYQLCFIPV
pIC50: −log10 of the molar value.

| Query Smiles | Test System | pIC50 |
| --- | --- | --- |
| COc1cc2c(cc1OCCCCCCC(=O)O)C[C@@H](C(C)C)n1cc(C(=O)O)c(=O)cc1-2 | Cytochrome P450 2C19 (Homo sapiens, UniProt P33261) | < 5.00 |

###

test: Ratio of Cmax in liver to plasma in CD-1 mouse at 8 mg/kg, po by LC-MS/MS analysis; assay type: ADME, organism-based

| Query Smiles | Kp |
| --- | --- |
| COc1cc2c(cc1OCCCCCCC(=O)O)C[C@@H](C(C)C)n1cc(C(=O)O)c(=O)cc1-2 | 20.7 |

###

test: 1-Octanol/saturated PBS buffer distribution coefficient, logD of the compound incubated for 1 hr by LC-MS/MS analysis; type: physicochemical
Below, each entry is listed alongside its reported logD at 1 h.
Reported Property: logD at 1 h

| Query Smiles | Measurement |
| --- | --- |
| COc1cc2c(cc1OCCCCCCCCC(=O)O)C[C@@H](C(C)C)n1cc(C(=O)O)c(=O)cc1-2 | 0.7 |
| COCCCOc1cc2c(cc1OC)-c1cc(=O)c(C(=O)O)cn1[C@H](C(C)C)C2 | 1.39 |
| COc1cc2c(cc1OCCCCCCC(=O)O)C[C@@H](C(C)C)n1cc(C(=O)O)c(=O)cc1-2 | -0.65 |
| COc1cc2c(cc1OCCCCCCCC(=O)O)C[C@@H](C(C)C)n1cc(C(=O)O)c(=O)cc1-2 | 0.07 |
